# testedTarget: Porcine ventricle myofibrils (ventricular myosin ATPase) (Sus scrofa, UniProt P79293)
# Construct: Myofibrils from porcine cardiac muscle was isolated from the left ventricle of Yucatan minipigs; tissue Exemplar Genetics; host or cells: left ventricle of Yucatan minipigs, myofibrils prepared in house
# Sequence (P79293 whole entry): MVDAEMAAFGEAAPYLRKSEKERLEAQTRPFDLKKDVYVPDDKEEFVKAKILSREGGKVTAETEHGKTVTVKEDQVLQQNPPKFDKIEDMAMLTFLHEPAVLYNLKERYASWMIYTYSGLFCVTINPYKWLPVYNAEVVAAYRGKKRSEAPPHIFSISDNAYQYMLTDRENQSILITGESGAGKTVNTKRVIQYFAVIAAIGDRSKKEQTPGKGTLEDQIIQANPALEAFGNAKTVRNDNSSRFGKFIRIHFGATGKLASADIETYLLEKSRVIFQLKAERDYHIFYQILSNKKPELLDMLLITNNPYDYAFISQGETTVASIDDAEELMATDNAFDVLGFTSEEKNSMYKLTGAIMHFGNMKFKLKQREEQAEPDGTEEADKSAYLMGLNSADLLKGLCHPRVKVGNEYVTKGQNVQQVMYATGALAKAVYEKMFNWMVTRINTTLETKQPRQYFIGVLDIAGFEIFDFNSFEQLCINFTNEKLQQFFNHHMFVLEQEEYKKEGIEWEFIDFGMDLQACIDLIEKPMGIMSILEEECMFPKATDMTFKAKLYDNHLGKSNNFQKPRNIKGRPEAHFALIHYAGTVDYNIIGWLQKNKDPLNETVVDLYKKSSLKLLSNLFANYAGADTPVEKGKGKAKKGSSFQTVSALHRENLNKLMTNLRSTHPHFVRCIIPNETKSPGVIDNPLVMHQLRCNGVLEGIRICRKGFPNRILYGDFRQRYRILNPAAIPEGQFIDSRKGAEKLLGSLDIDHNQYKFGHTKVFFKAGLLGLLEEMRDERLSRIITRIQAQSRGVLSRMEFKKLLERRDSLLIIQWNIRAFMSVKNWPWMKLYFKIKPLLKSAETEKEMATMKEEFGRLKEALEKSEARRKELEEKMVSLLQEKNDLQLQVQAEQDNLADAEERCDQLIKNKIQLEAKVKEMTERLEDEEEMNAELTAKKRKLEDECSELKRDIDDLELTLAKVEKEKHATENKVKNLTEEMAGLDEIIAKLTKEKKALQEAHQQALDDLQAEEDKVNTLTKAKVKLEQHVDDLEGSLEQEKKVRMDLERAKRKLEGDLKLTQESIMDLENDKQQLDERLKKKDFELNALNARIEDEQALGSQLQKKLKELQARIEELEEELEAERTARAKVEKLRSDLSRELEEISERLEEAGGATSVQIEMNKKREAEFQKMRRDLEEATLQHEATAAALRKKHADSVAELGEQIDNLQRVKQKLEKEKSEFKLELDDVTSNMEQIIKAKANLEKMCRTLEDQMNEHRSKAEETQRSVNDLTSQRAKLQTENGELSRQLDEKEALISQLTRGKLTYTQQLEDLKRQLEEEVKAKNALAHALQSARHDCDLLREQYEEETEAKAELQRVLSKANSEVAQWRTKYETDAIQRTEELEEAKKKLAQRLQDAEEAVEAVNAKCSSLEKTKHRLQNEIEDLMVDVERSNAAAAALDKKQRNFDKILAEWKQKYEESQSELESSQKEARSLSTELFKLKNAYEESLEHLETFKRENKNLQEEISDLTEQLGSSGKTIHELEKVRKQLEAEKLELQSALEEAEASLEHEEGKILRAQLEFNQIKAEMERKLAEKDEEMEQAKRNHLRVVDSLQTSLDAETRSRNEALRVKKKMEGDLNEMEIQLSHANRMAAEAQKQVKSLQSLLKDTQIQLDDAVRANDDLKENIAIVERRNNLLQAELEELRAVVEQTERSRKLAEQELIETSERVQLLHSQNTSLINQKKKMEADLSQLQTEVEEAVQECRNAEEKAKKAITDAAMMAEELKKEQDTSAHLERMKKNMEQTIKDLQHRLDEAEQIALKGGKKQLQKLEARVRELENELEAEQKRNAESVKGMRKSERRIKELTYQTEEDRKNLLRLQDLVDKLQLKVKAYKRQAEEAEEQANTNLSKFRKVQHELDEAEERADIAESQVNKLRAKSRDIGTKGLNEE
# protocolDescription: Myofibril ATPase assay, porcine ventricle myofibrils
# Format: biochemical, porcine (Yucatan minipigs)
# condition: Y75 value (no ‡ mark); porcine ventricle myofibrils
Just a reminder that ties go to 0 (no): only Ventricular EC25 strictly below 2 µM counts as 1 (yes).

1) C[C@H](NC(=O)Cc1c(C2CC2)c2cc(F)ccc2[nH]c1=O)c1ncc(C#N)cc1F [compound 40] :: 1 (yes)
2) Cc1c(C2(C(=O)N[C@@H](C)c3ncc(C#N)cc3F)CC2)c(=O)[nH]c2ccc(F)cc12 (single isomer, unassigned) [compound 2597] :: 1 (yes)
3) C[C@H](NC(=O)Cc1cc2c(F)c(F)ccc2[nH]c1=O)c1cnc(C#N)cn1 (single isomer, unassigned) [compound 12] :: 1 (yes)
4) C[C@H](NC(=O)Cc1cc2cc(F)c(F)cc2[nH]c1=O)c1cnc(C#N)cn1 [compound 1099] :: 0 (no)
5) C[C@@H](NC(=O)Cc1cc2c(F)c(F)ccc2[nH]c1=O)c1ccc(C#N)cn1 [compound 17] :: 1 (yes)
6) Cc1c(CC(=O)N[C@H](C)c2ncc(C#N)cc2F)c(=O)[nH]c2cc(F)c(F)cc12 [compound 1104] :: 1 (yes)
7) Cc1c(CC(=O)N[C@@H](C)c2ccc(C#N)nn2)c(=O)[nH]c2ccc(F)c(C3CC3)c12 (single isomer, unassigned) [compound 2058] :: 0 (no)
8) C[C@H](NC(=O)Cc1cc2c(F)c(F)ccc2[nH]c1=O)c1ncc(C#N)cc1F [compound 36] :: 1 (yes)
9) COc1ccc2[nH]c(=O)c(CC(=O)N[C@H](C)c3ncc(F)cc3F)cc2c1C (single isomer, unassigned) [compound 79] :: 0 (no)
10) Cc1c(CC(=O)N[C@H]2CCc3cc(C#N)cnc32)c(=O)[nH]c2ccc(F)cc12 [compound 1093] :: 0 (no)
11) Cc1ccc2[nH]c(=O)c(CC(=O)N[C@H](C)c3ncc(C#N)cn3)cc2c1F (single isomer, unassigned) [compound 2013] :: 0 (no)
12) C[C@H](NC(=O)[C@@H](C)c1cc2c(F)cccc2[nH]c1=O)c1ccc(F)cc1F (single isomer, unassigned) [compound 102] :: 0 (no)
13) N#Cc1cc(F)c2c(c1)OC[C@H]2NC(=O)C1(c2cc3c(F)c(F)ccc3[nH]c2=O)CC1 (single isomer, unassigned) [compound 4821] :: 0 (no)
14) Cc1cc(C#N)ncc1[C@H](C)NC(=O)Cc1c(C)c2c(C)c(F)ccc2[nH]c1=O [compound 1045] :: 1 (yes)

Ref: patent US12448369B2
